From: ChEMBL document CHEMBL1772949

Molecular target: Cellular retinoic acid-binding protein 2 (Rattus norvegicus)
Sequence (whole entry): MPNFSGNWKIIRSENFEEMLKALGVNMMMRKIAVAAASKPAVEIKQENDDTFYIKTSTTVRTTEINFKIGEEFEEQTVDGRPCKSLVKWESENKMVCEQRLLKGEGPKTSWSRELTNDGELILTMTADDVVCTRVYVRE
Assay: Agonist activity at rat CRABP2 expressed in human MG63 cells co-transfected with RXRE-SV40-Luc assessed as transcriptional efficacy at 10^-6 M after 2 days by luciferase reporter gene assay realtive to 9-cis-retinoic acid
Assay type: functional, cell-based
Settings: MG-63
Entries get a class label from measured Ratio. See ranges: lower = under 0.7, middle = from 0.7 up to 2, upper = 2 and over

- CC(=C/C=C/C(C)=C/C(=O)O)/C=C/C1=C[C@@H](C)CC[C@@H]1C(C)C: middle
- CC(=C/C=C/C(C)=C/C(=O)O)/C=C/C1=CC[C@H]2C[C@@H]1C2(C)C: upper
- C/C(=C/C=C/C(C)=C/C(=O)O)C1=C[C@H](C)CC[C@H]1C(C)C: lower
- CC(=C/C=C/C(C)=C/C(=O)O)/C=C/C1=C[C@H]2C[C@@H]([C@@H]1C)C2(C)C: lower
- C=C(C)[C@@H]1CCC2=CC(\C(C)=C/C=C/C(C)=C/C(=O)O)=CC[C@]2(C)[C@H]1C: lower
- CC(=C/C=C/C(C)=C/C(=O)O)/C=C/C1=C[C@@H]2CC[C@@]1(C)C2(C)C: upper
- CC(=C/C=C/C(C)=C/C(=O)O)/C=C/C1=C[C@@H]2C[C@H]([C@H]1C)C2(C)C: middle
- CC(C)=C1CC[C@H](C)C=C1/C=C/C(C)=C\C=C\C(C)=C\C(=O)O: upper
- C/C(=C/C=C/C(C)=C/C(=O)O)C1=C[C@H]2CC[C@]1(C)C2(C)C: lower
- C=C(C)[C@@H]1CC[C@@H](C)C=C1/C=C/C(C)=C\C=C\C(C)=C\C(=O)O: middle
- CC(=C/C=C/C(C)=C/C(=O)O)/C=C/C1=C[C@H](C)CC[C@H]1C(C)C: middle
- CC(=C/C=C/C(C)=C/C(=O)O)/C=C/C1=CC2CC[C@]1(C)C2(C)C (single isomer, unassigned): lower
- CC(C)=C1CC[C@@H](C)C=C1/C=C/C(C)=C\C=C\C(C)=C\C(=O)O: middle
- C=C(C)[C@H]1CC[C@H](C)C=C1/C=C/C(C)=C\C=C\C(C)=C\C(=O)O: middle
- CC(=C/C=C/C(C)=C/C(=O)O)/C=C/C1=C[C@]2(C(C)C)C[C@@H]2[C@H]1C: upper

---

Molecular target: Retinoic acid receptor beta (Homo sapiens) (UniProt P10826)
Sequence (P10826 whole entry): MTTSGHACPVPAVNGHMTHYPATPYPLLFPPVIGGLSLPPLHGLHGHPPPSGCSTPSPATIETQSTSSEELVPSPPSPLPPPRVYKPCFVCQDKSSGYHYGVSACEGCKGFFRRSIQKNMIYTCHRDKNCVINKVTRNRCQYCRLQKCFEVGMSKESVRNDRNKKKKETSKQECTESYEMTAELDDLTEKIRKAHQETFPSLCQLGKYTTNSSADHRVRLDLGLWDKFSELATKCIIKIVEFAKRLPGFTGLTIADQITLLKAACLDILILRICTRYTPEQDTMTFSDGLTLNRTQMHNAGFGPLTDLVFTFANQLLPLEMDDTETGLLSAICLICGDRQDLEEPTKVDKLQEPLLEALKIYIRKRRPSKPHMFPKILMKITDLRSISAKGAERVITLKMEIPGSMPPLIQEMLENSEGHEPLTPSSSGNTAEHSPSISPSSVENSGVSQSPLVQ
Experiment: Agonist activity at human RARbeta expressed in human MG63 cells co-transfected with RARE3-SV40-Luc assessed as transcriptional efficacy at 10^-6 M after 2 days by luciferase reporter gene assay realtive to 9-cis-retinoic acid
Format: functional, cell-based
Conditions: MG-63
Entries get a class label from measured Ratio. See ranges: bin 1 (below 0.3), bin 2 (0.3 to below 1), bin 3 (1 or more)

* CC(C)=C1CC[C@H](C)C=C1/C=C/C(C)=C\C=C\C(C)=C\C(=O)O | bin 2
* C=C(C)[C@@H]1CC[C@@H](C)C=C1/C=C/C(C)=C\C=C\C(C)=C\C(=O)O | bin 2
* CC(=C/C=C/C(C)=C/C(=O)O)/C=C/C1=C[C@@H](C)CC[C@@H]1C(C)C | bin 2
* CC(=C/C=C/C(C)=C/C(=O)O)/C=C/C1=C[C@@H]2CC[C@@]1(C)C2(C)C | bin 3
* CC(=C/C=C/C(C)=C/C(=O)O)/C=C/C1=C[C@H](C)CC[C@H]1C(C)C | bin 1
* C/C(=C/C=C/C(C)=C/C(=O)O)C1=C[C@H]2CC[C@]1(C)C2(C)C | bin 1
* CC(C)=C1CC[C@@H](C)C=C1/C=C/C(C)=C\C=C\C(C)=C\C(=O)O | bin 2
* CC(=C/C=C/C(C)=C/C(=O)O)/C=C/C1=CC2CC[C@]1(C)C2(C)C (single isomer, unassigned) | bin 3
